The entries that follow carry IC50 values tested on Prostaglandin E2 receptor EP3 subtype (Homo sapiens, UniProt P43115), drawn from several published reports.

Use these answered entries as a reference point.
Compound: O=C(COc1cccc2c1N(Cc1ccc(Cl)cc1)C(=O)CO2)NS(=O)(=O)c1cccs1
Readout Kind: IC50
Assay Result: > 10000 nM
--
Compound: CC(=O)Nc1ccc(-c2cccc3c2c(Cc2ccc4ccccc4c2)cn3C)cc1
Readout Kind: IC50
Assay Result: 1000 to 10000 nM
--
Compound: Cc1cn(CCC(=O)NS(=O)(=O)c2cc(Cl)c(Cl)s2)c2c(Oc3ccc(Cl)cc3Cl)cc(F)cc12
Readout Kind: IC50
Assay Result: < 1000 nM
--
Compound: Cc1cn(CC2CCOCC2)c2c(/C=C/C(=O)NS(=O)(=O)c3cc(Cl)c(Cl)s3)cccc12
Readout Kind: IC50
Assay Result: < 1000 nM

Below is a list of compounds. For each, state its recorded IC50.
1. CCOP(=O)(NC(=O)OCc1cccc2ccn(Cc3ccc4ccccc4c3)c12)OCC
2. CC1(O)C(=O)N(Cc2ccc(Cl)cc2Cl)c2c(C=CC(=O)NS(=O)(=O)c3cc(Cl)c(Cl)s3)cccc21 (stereo not shown)
3. O=C(O)COc1cccc2ncn(Cc3ccc(Cl)cc3Cl)c12
4. O=C(COc1cccc2[nH]cc(Sc3nc4ccccc4s3)c12)NS(=O)(=O)c1cc(Cl)c(Cl)s1
5. Cc1cn(Cc2ccc(F)c(F)c2)c2c(-c3cc(NS(=O)(=O)c4cc(Cl)c(Cl)s4)n(C)n3)cc(F)cc12
6. Cc1cn(Cc2ccc(Cl)cc2Cl)c2c(C=CC(=O)NS(=O)(=O)c3cc(Cl)c(Cl)s3)cncc12

OUTPUT:
["1000 to 10000 nM", "< 1000 nM", "< 1000 nM", "< 1000 nM", "1000 to 10000 nM", "< 1000 nM"]
